pIC50 values for the molecules below.
Target: human cathepsin L (Homo sapiens, UniProt P07711)
Construct: purchased R&D Systems
Experiment: cathepsin L assay
Format: biochemical
Settings: 10 pM human cathepsin L, Z-FR-AMC 2 μM, class symbols
pIC50: −log10 of the molar value.

Task: What measured pIC50 goes with COc1cccc2[nH]c(C(=O)N3CCC4(CC4)C[C@H]3C(=O)N[C@@H](C[C@@H]3CCNC3=O)C(=O)C(=O)NC3CC3)cc12 [Compound 179] ?
Output: 5.00 to 6.00

* * *

Tested on: SARS-CoV-2-GHB-03021/2020
Test: microbe, parasite or virus in culture
Type: cell-based
Settings: Severe acute respiratory syndrome coronavirus 2, Vero C1008, 96 h; read-out: VeroE6 + CP (EC50)
# maps each entry to its EC50

Use the examples below as a reference point.
O=C(NCc1ccccc1)C(=O)C(C[C@@H]1CCNC1=O)NC(=O)[C@@H]1[C@H]2CCC[C@H]2CN1C(=O)c1cc2ccccc2[nH]1 (stereo partly drawn); 1 to 10 µM
CC(C)COCCNC(=O)C(=O)[C@H](C[C@@H]1CCNC1=O)NC(=O)[C@@H]1[C@H]2CCC[C@H]2CN1C(=O)c1cc2c(Cl)cc(Cl)cc2[nH]1; < 1 µM
COc1cccc2[nH]c(C(=O)N3C[C@@H]4CCC[C@@H]4[C@H]3C(=O)N[C@@H](C[C@@H]3CCNC3=O)C(=O)C(=O)NCCOCc3ccccc3)cc12; 1 to 10 µM
COc1cccc2[nH]c(C(=O)N3C[C@@H]4CCC[C@@H]4[C@H]3C(=O)N[C@@H](CN3CC[C@H](O)C3=O)C(=O)C(=O)NC3CC3)cc12; > 50 µM
COc1cccc2[nH]c(C(=O)N3C[C@@H]4CCC[C@@H]4[C@H]3C(=O)N[C@@H](CC3CC(C)(C)NC3=O)C(=O)C(=O)NC3CC3)cc12 (single isomer, unassigned); 1 to 10 µM

Task: # get_value(readout='EC50', item= CC(F)(F)c1cccc2[nH]c(C(=O)N3C[C@@H]4CCC[C@@H]4[C@H]3C(=O)N[C@@H](C[C@@H]3CCNC3=O)C(=O)CO)cc12 )
Output: 10 to 100 µM

Task: What value of EC50 has been reported for the following compound? COc1cccc2[nH]c(C(=O)N3C[C@@H]4CCC[C@@H]4[C@H]3C(=O)N[C@@H](CC3CC(C)(C)NC3=O)C(=O)CO)cc12 (relative stereo)
Output: < 1 µM

Task: May I ask what EC50 has been recorded for CC[C@@H]1C[C@@H](C(=O)N[C@@H](C[C@@H]2CCNC2=O)C(=O)C(=O)NCc2ccccc2)N(C(=O)c2cc3ccccc3[nH]2)C1 ?
Output: 1 to 10 µM

Task: Requested read-out: EC50. Entry: CC(C)(C)O[C@@H]1C[C@@H](C(=O)NC(C[C@@H]2CCNC2=O)C(=O)C(=O)NCc2ccccc2)N(C(=O)c2cc3ccccc3[nH]2)C1 (stereo partly drawn)
Output: > 100 µM

* * *

The following compounds are shown together with reported pIC50 values.
Target: HRV3C (Human rhinovirus 14)
Assay: HRV3C protease assay (duplex, SAMDI-MS)
Assay type: biochemical, HRV
Conditions: HRV IC50, HRV3C, 30 mins preincubation, bound
pIC50: −log10 of the molar value.

COc1cccc2[nH]c(C(=O)N3C[C@@H]4CCC[C@@H]4[C@H]3C(=O)N[C@H](C=O)CC3CCNS3(=O)=O)cc12 (stereo partly drawn); < 5.00

Task: Recorded pIC50 of O=C1NCC[C@H]1C[C@H](NC(=O)[C@@H]1[C@H]2CCC[C@H]2CN1C(=O)c1cc2c(Cl)c(F)cc(F)c2[nH]1)C(=O)CO , please.
Output: < 5.00

Task: May I ask what pIC50 has been recorded for COc1cccc2[nH]c(C(=O)N3C[C@@H]4CCC[C@@H]4[C@H]3C(=O)N[C@@H](C[C@@H]3CCNC3=O)C(=O)c3cnc[nH]3)cc12 ?
Output: < 5.00
